Cited source for all entries: PubChem BioAssay

procedure details: growth inhibition, single agents and combos, LFS_MB_1R, cell-based, cisplatin or BGB combos, synergistic combos for chromothripsis tumors (AID 1671452);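 note: cells exposed for 96 hours before readout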
measurement context: LFS_MB_1R medulloblastoma cells, measured here: combination with BGB IC40, at 0.05 µM, stronger effect = higher value
inhibition for assorted molecules
Please answer using a numeric value trailed by its unit.

O=C(/C=C/c1cccc(S(=O)(=O)Nc2ccccc2)c1)NO; -40%
Nc1nc2n[nH]nc2c(=O)[nH]1; -15.8%
O=C(/C=C/c1ccc(CN(CCO)CCc2c[nH]c3ccccc23)cc1)NO; 0.114%
O=c1[nH]c([C@@H]2CCCN2)nc2c1oc1ccc(Cl)cc12; -29.1%
O=C(O)[C@H](Cc1c[nH]c2ccccc12)N1C(=O)c2ccccc2C1=O; -49.9%

Item "O=c1[nH]cnc2ccccc12" has what recorded inhibition? -25.1%

Quick check: inhibition of "O=C(O)CO.[NH2-].[NH2-].[Pt+2]" ? -19.6%

State the recorded inhibition for this entry: "CC(C)OC(=O)[C@H](C)N[P@](=O)(OC[C@H]1O[C@@H](n2ccc(=O)[nH]c2=O)[C@](C)(F)[C@@H]1O)Oc1ccccc1" -16%

Please look up its inhibition: "O=C(COc1cccc2c(=O)[nH]ccc12)c1ccccc1" 3.04%

inhibition lookup needed for "CN(C)Cc1c(C(=O)NCCOc2ccc(C(=O)NO)cc2)oc2ccccc12" , thanks. -17%

Form field: reported inhibition of "Nc1ncnc2c1c(-c1cnc3[nH]ccc3c1)nn2C1CCCC1" -13.7%

// query inhibition value for entry "CN(C)c1ccc(C(=O)NCCCCCCC(=O)NO)cc1" -37.9%

Any idea what its inhibition is? The molecule is "COc1cc(C=O)c([N+](=O)[O-])cc1OC" -4.39%

----------
procedure details: growth inhibition of DIPG cells – cell-based, MIPE4.0 library, CellTiter-Glo luminescence, qHTS (AID 1347066);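 note: cells exposed to compound for 48 hours before readout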
measurement context: SU-DIPG-VI viability, CellTiter-Glo ATP luminescence
Inconclusive results are not listed. The source made the active and inactive calls. Cut-off not given; nearly all actives show AC50 up to about 30 µM.
One label from this list, please: active, inactive

Consider the following illustrative entries.
Cn1cc(C[C@@H](N)C(=O)O)c2ccccc21; inactive
O=C(O)[C@@H](c1ccc(OCc2ccc3ccccc3n2)cc1)C1CCCC1; inactive

Look up the recorded call for "COc1cc(CCc2cc(NC(=O)c3ccc(N4C[C@@H](C)N[C@@H](C)C4)cc3)n[nH]2)cc(OC)c1" in this test. active

Write down the call the test reported for this molecule. Item: "COc1cccc(Nc2c(C(N)=O)cnc3c(C)cc(S(=O)(=O)c4cccc(C(=O)N(C)C)c4)cc23)c1" inactive

For this molecule, state the assay outcome: CCNC(=O)CCC/C=C\C[C@@H]1[C@@H](/C=C/C(O)CCc2ccccc2)[C@@H](O)C[C@@H]1O (stereo not given in full) inactive

Could you please tell me the result logged for "O=C(N[C@@H](c1ccccc1)[C@@H]1CCCCN1)c1cccc(C(F)(F)F)c1Cl" in this assay? inactive

# fetch the recorded call for "Cc1cnc(CNC(=O)c2c(=O)c3ccc(N4CCCN(C)CC4)nc3n3c2sc2ccccc23)cn1" here inactive

Could you kindly confirm the outcome this assay logged for "Nc1nc(Nc2ccc(S(N)(=O)=O)cc2)nn1C(=O)c1c(F)cccc1F" ? inactive

Each molecule tested received a call. Report the one for "CC(C)C[C@H](NC(=O)[C@@H](NC(=O)c1cccc(-c2ccccc2)n1)[C@@H](C)O)B(O)O" . active

# fetch the recorded call for "CCOc1ccc(Cc2cc([C@@H]3O[C@H](CO)[C@@H](O)[C@H](O)[C@H]3O)ccc2Cl)cc1" here inactive

Give the logged outcome of this assay for the following molecule: "CC1(C)CCC(CN2CCN(c3ccc(C(=O)NS(=O)(=O)c4ccc(NCC5CCOCC5)c([N+](=O)[O-])c4)c(Oc4cnc5[nH]ccc5c4)c3)CC2)=C(c2ccc(Cl)cc2)C1" active

Assay outcome for "CCCCC(F)(F)[C@@]1(O)CC[C@H]2[C@@H](CC(=O)[C@@H]2CCCCCCC(=O)O)O1" : what was it? inactive

Dear colleague, could you share the recorded outcome for "O=c1ccn([C@@H]2O[C@H](CO)[C@@H](O)[C@@H]2F)c(=O)[nH]1" when you have a moment? inactive

Answer briefly: the call reported for "CC(=O)OCCN1C(=O)c2c(C)nc3ccc(S(=O)(=O)N4CCOCC4)cc3c2C1=O" in this assay. inactive

For "NS(=O)(=O)c1ccc(NC2=CC(=O)c3ccccc3C2=O)cc1" , which call appears in the assay record? active

Please share the test call associated with "CCCCOc1ccc(C(=O)Nc2ccc(F)cc2F)cc1" . inactive

// return assay outcome for Cn1c2cc(S(C)=O)sc2c2cnn(Cc3cccc(N)c3)c(=O)c21 (stereo not given) inactive

Record request — test call for "COc1ccc2c(c1)CC[C@@H]1[C@@H]2CC[C@]2(C)[C@@H](NCCCCCCN3C(=O)C=CC3=O)CC[C@@H]12" inactive

Kindly provide the recorded test outcome for the following molecule: "CS(=O)(=O)c1ccc(C(=O)Nc2ccc(Cl)c(-c3ccccn3)c2)c(Cl)c1" inactive

Could you kindly confirm the outcome this assay logged for C=C1C(=O)[C@@]23C(CC[C@@H]1[C@H]2O)[C@@]12CO[C@]3(O)[C@@H](O)[C@@H]1C(C)(C)CC[C@@H]2O (stereo not given in full) ? active

Please let me know the test result on file for "Cn1cc(-c2ccc3ncc(Cc4ccc5ncccc5c4)n3n2)cn1" . inactive

So what was the verdict on Nc1nc(=O)n([C@H]2CSC(CO)O2)cc1F (stereo not given in full) in this test? inactive

----------
procedure details: drug combination growth inhibition, ovarian cancer – cell-based, oncology-focused library, rucaparib conditional, profiling panel (AID 1508598)
measurement context: patient-derived ovarian cancer cells, CellTiter-Glo viability, 144 h; at 5 µM; OCI-P5x cells; with rucaparib 20 µM; stronger effect = lower value; 100% = cells with rucaparib alone
readout name: viability (%)
Write the value in % as a bare number.

Here's what some known entries look like.
O=C(Nc1cn[nH]c1-c1nc2ccc(CN3CCOCC3)cc2[nH]1)NC1CC1; 39.6
Nc1ccc(-c2ccc3ncc4ccc(=O)n(-c5cccc(C(F)(F)F)c5)c4c3c2)cn1; 10.8
N#Cc1c(NC(=O)c2cccc3ccccc23)sc2c1CCCC2; 58.3
COc1cc(Nc2ncc(F)c(Nc3ccc4c(n3)NC(=O)C(C)(C)O4)n2)cc(OC)c1OC; 79

# lookup: viability of "O=C(NCCCNc1nc(Nc2cccc(NC(=O)N3CCCC3)c2)ncc1I)c1cccs1" 68.2

Record request: viability value, item "CCN1CCN(Cc2ccc(-c3cc4c(N[C@H](C)c5ccccc5)ncnc4[nH]3)cc2)CC1" 64.4

Entry under review: "C=CC(=O)Nc1cccc(Oc2nc(Nc3ccc(N4CCN(C)CC4)cc3OC)ncc2Cl)c1" . Reported viability? 104

Which viability is listed for "C/C(=C\C(=O)Nc1ccccc1C(=O)O)c1ccc2ccccc2c1" ? 119

Quick check: viability of "COc1ccc(-c2ccc3c(N4CCOC[C@@H]4C)nc(N4CCOC[C@@H]4C)nc3n2)cc1CO" ? 26.9

Can you look up the measured viability of "O=S(=O)(O)CCSSCCS(=O)(=O)O" for me? 90.1

Sample "CN[C@H]1CN(c2ccc3c(=O)c(C(=O)O)cn(-c4nccs4)c3n2)C[C@@H]1OC" — what was its viability? 9.42

----------
procedure details: viability loss in pontine glioma line – cell-based, SU-DIPG-IV, MIPE4.0, CellTiter-Glo, qHTS, dose response (AID 1347063);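 note: compound exposure lasted 48 hours before the viability readout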
measurement context: CellTiter-Glo ATP luminescence
Results filed as inconclusive are left out. The source made the active and inactive calls. Cut-off not given; nearly all actives show AC50 up to about 30 µM.
Allowed answers: label 1 (active), label 0 (inactive)

Examples with answers:
CNC(=O)c1ccc(C)c(-n2c(C)cc(OCc3ccc(F)cc3F)c(Br)c2=O)c1; label 0
COCCn1c2c([n+](Cc3cnccn3)c1C)C(=O)c1ccccc1C2=O; label 1
CCC(=O)O[C@]1(C(=O)CO)CC[C@H]2[C@@H]3CCC4=CC(=O)CC[C@]4(C)[C@H]3CC[C@@]21C; label 0
COC1CCC(N(C(=O)C2CCC(C)CC2)c2cc(C3=CCCCC3)sc2C(=O)O)CC1 (stereo not given); label 0

Now for another entry.
Which outcome was assigned to "c1ccc(CNc2nc(NCc3ccccc3)c3ccccc3n2)cc1" in this test? label 1

----------
procedure details: viability loss in pontine glioma line – cell-based, SU-DIPG-XIII, MIPE5.0, CellTiter-Glo, qHTS, dose response (AID 1347064);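 for AC50: cells exposed to compound for 48 hours before the viability read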
measurement context: CellTiter-Glo ATP luminescence
Records with an inconclusive call do not appear. Active and inactive are the calls of the source. No cut-off is given here; in the data, nearly all actives have AC50 up to about 23 µM.
Thanks in advance; please answer with one of these: 1 (yes) for active, 0 (no) for inactive

C[C@@H](c1ccc2nccn2c1)n1nnc2ncc(-c3cnn(C)c3)nc21; 0 (no)
O=C1OC(COc2ccccc2[N+](=O)[O-])CC1Cc1ccccc1 (stereo not given); 0 (no)
CN1C(N)=N[C@](C)(c2cc(NC(=O)c3ccc(F)cn3)ccc2F)CS1(=O)=O; 0 (no)

Answer briefly: the call reported for "CCS(=O)(=O)N1CCN(c2ccc(Nc3ncc(C(N)=O)c(NC4CC4)n3)cc2)CC1" in this assay. 1 (yes)

What was the test verdict on CC1(C)C(N(O)C(=O)Nc2ccc(Cl)cc2)N(c2ccc(Cl)cc2)C(=O)N1CC(=O)N/N=C/C=C/c1ccc([N+](=O)[O-])o1 (stereo not given) ? 1 (yes)
